assayed_target: T1, human-CD40-monomer protein (human, UniProt P25942 21-193, limits assumed)
T1 construct: Soluble monomer generated in house, used as SPR analyte; also called hCD40; hCD40-monomer
T1 sequence (P25942 21-193 limits assumed): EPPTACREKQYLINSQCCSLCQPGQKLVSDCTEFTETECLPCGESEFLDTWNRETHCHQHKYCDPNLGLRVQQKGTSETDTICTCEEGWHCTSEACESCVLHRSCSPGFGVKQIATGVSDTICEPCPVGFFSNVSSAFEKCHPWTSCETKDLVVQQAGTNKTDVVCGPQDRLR
test_description: SPR, Ab captured on protein A, hCD40 monomer 500 and 50 nM, 1:1 fit; supernatant
Provide the recorded Kd for the entries that follow.
State just the number; it will be interpreted in nM.

Task item: Read off the recorded Kd for Y12XX-hz3 (antibody, human IgG1, kappa, V domains shown, Humanized, IgG1-P238K; supernatant sample) VH: QVQLVQSGAEVKKPGSSVKVSCKASGYAFTSYWMHWVRQRPGQGLEWIGFINPTTGYSEYNQKFKDRVTITADKSTSTAYMELNSLRSEDTAVYYCARWGLPPFAYWGQGTLVTVSS VL: DIQMTQSPSSLSASVGDRVTITCKASQDVSTAVAWYQQKPGKAPKLLIYSASYRYTGVPSRFSGSGSGTDFTFTISSLQPEDIATYYCQQHYSTPWTFGGGTKVEIKR
Reply: 4.5

Task item: Read off the recorded Kd for Y12XX-hz42-P238K (antibody, human IgG1, kappa, V domains shown, also called Vh-hz14;Vk-hz3) VH: QVQLVQSGAEVKKPGSSVKVSCKASGYAFTSYWMHWVRQAPGQGLEWMGQINPTTGRSQYNEKFKTRVTITADKSTSTAYMELSSLRSEDTAVYYCARWGLQPFAYWGQGTLVTVSS VL: EIVMTQSPATLSVSPGERATLSCKASQDVSTAVAWYQQKPGQAPRLLIYSASYRYTGIPARFSGSGSGTEFTLTISSLQSEDFAVYYCQQHYSTPWTFGGGTKVEIKR
Reply: 3.5

Task item: Read off the recorded Kd for Y12XX-hz14 (antibody, human IgG1, kappa, V domains shown, Humanized, IgG1-P238K; supernatant sample) VH: QVQLVQSGAEVKKPGSSVKVSCKASGYAFTSYWMHWVRQAPGQGLEWMGQINPTTGRSQYNEKFKTRVTITADKSTSTAYMELSSLRSEDTAVYYCARWGLQPFAYWGQGTLVTVSS VL: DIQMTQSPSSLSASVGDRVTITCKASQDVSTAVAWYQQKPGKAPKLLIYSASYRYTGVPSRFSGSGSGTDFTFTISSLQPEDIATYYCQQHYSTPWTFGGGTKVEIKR
Reply: 5
